Biological target: FL-SMARCA4 (Homo sapiens)
Sequence (P51532 whole entry): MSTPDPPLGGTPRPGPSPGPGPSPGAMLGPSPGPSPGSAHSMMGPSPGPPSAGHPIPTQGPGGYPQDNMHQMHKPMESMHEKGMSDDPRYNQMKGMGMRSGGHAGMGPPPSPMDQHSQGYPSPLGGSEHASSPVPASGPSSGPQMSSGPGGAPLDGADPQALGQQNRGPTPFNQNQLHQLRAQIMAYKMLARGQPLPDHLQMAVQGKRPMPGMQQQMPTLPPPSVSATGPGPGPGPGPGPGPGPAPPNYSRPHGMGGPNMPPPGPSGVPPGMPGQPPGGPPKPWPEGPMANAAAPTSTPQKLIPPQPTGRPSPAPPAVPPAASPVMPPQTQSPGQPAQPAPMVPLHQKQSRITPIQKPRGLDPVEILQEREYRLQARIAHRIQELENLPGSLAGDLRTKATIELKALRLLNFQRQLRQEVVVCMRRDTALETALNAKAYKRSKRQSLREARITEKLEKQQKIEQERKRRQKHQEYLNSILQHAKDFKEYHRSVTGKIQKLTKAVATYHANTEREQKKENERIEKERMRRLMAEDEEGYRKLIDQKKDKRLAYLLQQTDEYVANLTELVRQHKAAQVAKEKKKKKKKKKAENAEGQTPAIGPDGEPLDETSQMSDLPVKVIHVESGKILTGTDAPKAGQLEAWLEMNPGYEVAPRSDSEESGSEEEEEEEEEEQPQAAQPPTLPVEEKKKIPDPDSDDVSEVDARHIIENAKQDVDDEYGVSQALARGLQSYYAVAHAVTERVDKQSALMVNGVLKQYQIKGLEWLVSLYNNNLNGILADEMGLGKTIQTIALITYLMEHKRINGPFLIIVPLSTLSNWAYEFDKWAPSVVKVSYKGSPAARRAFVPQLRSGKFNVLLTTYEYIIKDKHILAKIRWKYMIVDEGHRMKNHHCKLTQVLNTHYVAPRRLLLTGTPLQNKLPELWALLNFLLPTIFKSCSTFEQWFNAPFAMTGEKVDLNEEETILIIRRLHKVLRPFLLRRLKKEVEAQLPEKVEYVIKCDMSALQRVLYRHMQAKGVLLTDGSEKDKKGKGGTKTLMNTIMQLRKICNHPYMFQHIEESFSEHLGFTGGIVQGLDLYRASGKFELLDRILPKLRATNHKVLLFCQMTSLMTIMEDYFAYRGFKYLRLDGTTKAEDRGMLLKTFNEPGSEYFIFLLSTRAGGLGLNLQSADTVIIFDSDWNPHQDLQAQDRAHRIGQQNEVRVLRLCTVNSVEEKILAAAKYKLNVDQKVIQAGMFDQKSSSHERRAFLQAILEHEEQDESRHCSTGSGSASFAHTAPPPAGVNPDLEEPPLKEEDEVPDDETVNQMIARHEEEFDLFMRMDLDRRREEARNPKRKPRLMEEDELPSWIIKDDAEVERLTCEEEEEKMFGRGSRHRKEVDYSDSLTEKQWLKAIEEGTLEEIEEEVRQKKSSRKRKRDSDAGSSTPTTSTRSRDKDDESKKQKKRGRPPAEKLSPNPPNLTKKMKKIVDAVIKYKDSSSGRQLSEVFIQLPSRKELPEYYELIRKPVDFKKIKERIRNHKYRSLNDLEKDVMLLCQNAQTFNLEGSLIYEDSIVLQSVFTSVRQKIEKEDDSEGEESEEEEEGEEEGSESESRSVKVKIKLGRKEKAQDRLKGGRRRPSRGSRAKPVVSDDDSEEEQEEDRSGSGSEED
Assay: SMARCA4 ATPase activity assay (ADP-Glo, chicken mononucleosome substrate)
Details: FL-SMARCA4 IC>50, Table 3c.2; ATPase assay, enzyme 5 nM, ATP 250 uM, chicken mononucleosome 10 nM, 30 min preincubation
Endpoint: IC50 (nM)
Answers are plain numbers, in nM.

In [3]: df
Out[3]:
                                   compound  reported
0  N#Cc1cc(C#Cc2cc(C(=O)Nc3cc(F)c(=O)n(CC(F)F)c3)sc2Cl)ccn1 [Compound 151c]       111

Value lookup for IC50; key = "Cn1cc(C#Cc2cc(C(=O)Nc3cc(F)c(=O)n(CC(F)F)c3)sc2Cl)cn1" 75.9
